experiment: physchem; details: buffer, pH 6
observable: half-life (h)
Report the value in h with no unit label.

> print(dat)
                           smiles.structure  observable  quantitative.result
1  Cc1cc([C@H](C(=O)N2C[C@H](S(=O)(=O)F)C[C@H]2C(=O)N[C@@H](CC(=O)OC(C)(C)C)c2ccc(-c3scnc3C)cc2)C(C)C)on1   half-life                   15

Respond only with half-life recorded for "CC(=O)N[C@H](C(=O)N1C[C@H](S(=O)(=O)F)C[C@H]1C(=O)NCc1ccc(-c2scnc2C)cc1)C(C)(C)C" 15

---

assay: physchem; details: buffer, pH 5
observable: half-life
Respond with the figure and its unit, in that order.

Respond only with half-life recorded for "Cc1cc([C@H](C(=O)N2C[C@H](S(=O)(=O)F)C[C@H]2C(=O)N[C@@H](CC(=O)OC(C)(C)C)c2ccc(-c3scnc3C)cc2)C(C)C)on1" 14 h
